- testedSystem: N-terminal His6-tagged recombinant full-length human Lck (Homo sapiens, UniProt P06239)
- Construct: N-terminal His6-tagged recombinant full-length human Lck; His6 (N)
- Sequence (P06239 whole entry): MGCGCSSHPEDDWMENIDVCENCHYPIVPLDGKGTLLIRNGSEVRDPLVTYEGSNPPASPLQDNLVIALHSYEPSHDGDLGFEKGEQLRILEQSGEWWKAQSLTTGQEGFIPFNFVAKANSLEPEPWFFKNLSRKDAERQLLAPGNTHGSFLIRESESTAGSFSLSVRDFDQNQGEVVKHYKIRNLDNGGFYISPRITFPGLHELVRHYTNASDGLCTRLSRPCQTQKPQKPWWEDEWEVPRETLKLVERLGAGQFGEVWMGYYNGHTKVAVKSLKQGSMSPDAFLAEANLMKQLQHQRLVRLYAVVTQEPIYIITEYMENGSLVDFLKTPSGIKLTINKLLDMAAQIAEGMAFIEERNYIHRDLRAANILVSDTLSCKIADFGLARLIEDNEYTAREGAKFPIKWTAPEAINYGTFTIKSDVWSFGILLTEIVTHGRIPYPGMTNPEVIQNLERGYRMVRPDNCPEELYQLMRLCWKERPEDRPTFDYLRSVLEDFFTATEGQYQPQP
- protocolDescription: Lck IMAP assay
- conditions: ATP 6 μM (KM,ATP), enzyme pre-incubated with compounds for 60 minutes, values given as bins
pIC50: −log10 of the molar value.
pIC50 listing for selected compounds.
reportedEndpoint: pIC50

>>> measvalue("CCC[C@H](C)OC(=O)Nc1ccc(-c2nc(N3CCN(C(C)=O)CC3)n3ccnc(C)c23)cc1OC [Example 31]")
"≥ 8.00"
>>> measvalue("CCC[C@H](C)OC(=O)Nc1ccc(-c2nc([C@H]3CC[C@H](CN(C)C)CC3)n3ccnc(C)c23)cc1OC [Example 65]")
"≥ 8.00"
>>> measvalue("COc1cc(-c2nc([C@H]3CC[C@@H](N4CCOCC4)CC3)n3ccnc(C)c23)ccc1NC(=O)c1cc2c(OC)cccc2n1C [Example 26d]")
"≥ 8.00"
>>> measvalue("COc1cc(-c2nc(C3CN(C4CCOCC4)C3)n3ccnc(C)c23)ccc1NC(=O)c1cc2c(OC)cccc2n1C [Example 16]")
"7.00 to 8.00"

Origin of the recorded values: patent US8658794B2
